tgt: T1, HerA (thermophilic archaeon, Sulfolobus …, UniProt Q97WG8 1-500)
T1 sequence: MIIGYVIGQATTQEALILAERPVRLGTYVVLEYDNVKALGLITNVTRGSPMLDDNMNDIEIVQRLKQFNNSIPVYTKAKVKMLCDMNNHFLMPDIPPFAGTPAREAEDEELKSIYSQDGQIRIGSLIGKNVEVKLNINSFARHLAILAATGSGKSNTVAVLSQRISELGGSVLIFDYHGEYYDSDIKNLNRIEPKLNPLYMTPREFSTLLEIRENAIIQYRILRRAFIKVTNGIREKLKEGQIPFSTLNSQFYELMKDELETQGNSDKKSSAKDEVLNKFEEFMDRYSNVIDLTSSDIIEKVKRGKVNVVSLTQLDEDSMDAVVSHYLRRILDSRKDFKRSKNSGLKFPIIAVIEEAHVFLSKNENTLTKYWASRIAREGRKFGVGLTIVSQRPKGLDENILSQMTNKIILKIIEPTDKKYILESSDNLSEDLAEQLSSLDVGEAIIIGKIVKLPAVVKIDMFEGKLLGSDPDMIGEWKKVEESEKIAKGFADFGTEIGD
procedure_summary: fluorescence anisotropy; no nucleotide; HerA monomer concentration; FA: 5 nM dsDNA, 100 mM NaCl, 20 mM Hepes-NaOH pH 8.0, 30 min room temperature (with nucleotide: 2 mM plus 5 mM MgCl2); native MS: 200 mM ammonium acetate pH 7.0-7.5, 1:1 protein:DNA, 30 min room temperature
measurement_parameters: protein: recombinant; chain copies: 6; label: 5'-fluorescein on strand 1; blunt
property_label: pKd
The read-out pKd is expressed as -log10 of concentration in moles per litre.

get_value(item= 5'-fluorescein 25 bp dsDNA (dsDNA) DNA 1: GTAGTCCGGACGACAAACGCCGACT DNA 2: AGTCGGCGTTTGTCGTCCGGACTAC , readout=pKd) returns 5.31
